Cited source: paper PMC3874162

- TARGET: T1, Cdc13 (Saccharomyces cerevisiae, UniProt P32797 1-924)
- T1 sequence: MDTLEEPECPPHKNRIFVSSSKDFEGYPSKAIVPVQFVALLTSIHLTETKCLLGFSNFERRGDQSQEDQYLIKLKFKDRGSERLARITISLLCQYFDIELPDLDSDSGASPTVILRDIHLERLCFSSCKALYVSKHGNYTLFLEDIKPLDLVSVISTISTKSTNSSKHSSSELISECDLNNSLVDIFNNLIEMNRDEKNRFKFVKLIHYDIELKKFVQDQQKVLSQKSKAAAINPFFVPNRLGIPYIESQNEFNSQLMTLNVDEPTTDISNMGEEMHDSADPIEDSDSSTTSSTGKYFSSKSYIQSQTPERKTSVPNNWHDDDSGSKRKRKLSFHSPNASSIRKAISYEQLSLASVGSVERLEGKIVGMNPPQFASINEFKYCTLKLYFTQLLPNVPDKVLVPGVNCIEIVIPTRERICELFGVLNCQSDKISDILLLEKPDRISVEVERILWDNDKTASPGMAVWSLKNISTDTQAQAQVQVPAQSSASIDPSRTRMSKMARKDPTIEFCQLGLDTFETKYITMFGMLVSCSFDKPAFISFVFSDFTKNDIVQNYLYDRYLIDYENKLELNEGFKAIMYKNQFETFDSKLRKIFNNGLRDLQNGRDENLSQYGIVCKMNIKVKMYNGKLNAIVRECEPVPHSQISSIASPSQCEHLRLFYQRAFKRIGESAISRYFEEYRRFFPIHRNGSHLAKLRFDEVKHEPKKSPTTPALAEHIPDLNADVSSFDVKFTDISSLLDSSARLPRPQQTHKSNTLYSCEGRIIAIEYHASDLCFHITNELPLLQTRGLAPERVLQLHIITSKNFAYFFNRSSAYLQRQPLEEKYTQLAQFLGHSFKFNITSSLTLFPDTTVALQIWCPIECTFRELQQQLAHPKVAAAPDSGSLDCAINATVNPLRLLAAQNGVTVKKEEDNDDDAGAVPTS
- METHOD: EMSA
ATTRIBUTE MEASURED: pKd
In plain terms, pKd is the concentration in mol/L turned into minus its base-10 logarithm.

Give the reported pKd for this binder. GTGTGGGTGTG (ssDNA) [Tel11]
10.87
